B1: Caulobacter ParB omega fusion; a variant is named by its letters at X, in order, B8GW30 (parent)
chain: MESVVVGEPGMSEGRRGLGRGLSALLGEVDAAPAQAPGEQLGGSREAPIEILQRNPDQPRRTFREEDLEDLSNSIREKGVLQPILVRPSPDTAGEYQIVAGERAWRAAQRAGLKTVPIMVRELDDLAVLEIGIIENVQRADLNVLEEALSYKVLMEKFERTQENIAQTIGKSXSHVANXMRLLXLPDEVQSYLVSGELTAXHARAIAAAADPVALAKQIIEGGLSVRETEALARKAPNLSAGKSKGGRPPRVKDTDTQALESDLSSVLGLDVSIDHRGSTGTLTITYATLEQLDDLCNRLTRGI

variants of: B1; experiment: one-hybrid fitness for binding parS DNA (scaled: cognate 1, non-cognate 0); higher = stronger binding; conditions: with parS DNA site
Over roughly 81,000 sequences, “one-hybrid fitness for binding parS DNA” has its median near -0.17; the highest 2% begin near 0.51. What follows is part of a selection rich in the highest values, with near analogues and random picks from the rest.
READOUT: one-hybrid fitness for binding parS DNA

* RWDC | 0.635
* CKHA | ≤ 0.2
* RWDM | ≤ 0.2
* PWFC | ≤ 0.2
